The reported measurements were obtained from patent US9192672B2.

Experiment: Solubility in saline
Assay type: physicochemical
Settings: saline, saline or isotonic, Table 2, saline
Item-by-item account of solubility
Just the number please, in µg/mL, no unit attached.

Solved cases (2 shown):
MOLECULE	MEASURED PROPERTY	MEASUREMENT UNIT	NUMBER
C=CC1=C(C(=O)O)N2C(=O)[C@@H](NC(=O)/C(=N\OCC(=O)O)c3csc(N)n3)[C@H]2SC1 [cefixime]	solubility	µg/mL	55
CO/N=C(\C(=O)N[C@@H]1C(=O)N2C(C(=O)[O-])=C(C[N+]3(C)CCCC3)CS[C@H]12)c1csc(N)n1 [cefepime]	solubility	µg/mL	66

Shift focus to the following entry.
INPUT: // fetch solubility given entry CO/N=C(\C(=O)N[C@@H]1C(=O)N2C(C(=O)O)=C(CSc3nc(=O)c(=O)[nH]n3C)CS[C@H]12)c1csc(N)n1 [Ceftriaxone, ceftriaxone]
OUTPUT: 205

====

Experiment: Solubility in saline
Assay type: physicochemical
Conditions: saline, saline or isotonic, Table 1, saline
MEASURED PROPERTY: solubility (µg/mL)
Just the number please, in µg/mL, no unit attached.

INPUT: // fetch solubility given entry CO/N=C(\C(=O)N[C@@H]1C(=O)N2C(C(=O)O)=C(CSc3nc(=O)c(=O)[nH]n3C)CS[C@H]12)c1csc(N)n1
OUTPUT: 205

====

Assay: physchem
Settings: multivalent physiologic ion (MPI) solution, aqueous buffer, thermodynamic from solid
MEASURED PROPERTY: solubility

INPUT: // fetch solubility given entry CO/N=C(\C(=O)N[C@@H]1C(=O)N2C(C(=O)O)=C(CSc3nc(=O)c(=O)[nH]n3C)CS[C@H]12)c1csc(N)n1 [Ceftriaxone, ceftriaxone]
OUTPUT: ≥ 700 µg/mL

====

Item-by-item account of solubility
Experiment: physchem
Settings: artificial cerebrospinal fluid (aCSF), saline or isotonic, thermodynamic from solid

COMPOUND	solubility
CO/N=C(\C(=O)N[C@@H]1C(=O)N2C(C(=O)O)=C(CSc3nc(=O)c(=O)[nH]n3C)CS[C@H]12)c1csc(N)n1 [Ceftriaxone, ceftriaxone]	> 250 µg/mL

Shift focus to the following entry.
INPUT: // fetch solubility given entry C=CC1=C(C(=O)O)N2C(=O)[C@@H](NC(=O)/C(=N\OCC(=O)O)c3csc(N)n3)[C@H]2SC1 [cefixime]
OUTPUT: > 72 µg/mL

====

Experiment: physchem
Details: saline or isotonic, thermodynamic from solid
MEASURED PROPERTY: solubility

INPUT: // fetch solubility given entry CO/N=C(\C(=O)N[C@@H]1C(=O)N2C(C(=O)[O-])=C(C[N+]3(C)CCCC3)CS[C@H]12)c1csc(N)n1 [cefepime]
OUTPUT: > 78 µg/mL
